# protocol: Inhibition of RANKL-induced C57BL/6 mouse BMDM differentiation into osteoclasts after 4 days in presence of M-CSF by TRAP assay
# Type: functional
# conditions: C57BL/6, BMDM, 96 h
List of IC50 values.
Answer in µM, number only, no unit symbol.

CC1=C(C)[C@@]2(C[C@](C)(O)[C@H]3C[C@H](O)[C@@]4(C)C5=CC[C@H]6C(C)(C)C(=O)[C@H](O)C[C@]6(C)C5=C[C@@H](O2)[C@]34C)OC1=O: 7.4

IN: Tell me IC50 reported for C=C(CC[C@@H](C(=O)O)[C@H]1[C@H](O)C[C@@]2(C)C3=CC[C@H]4C(C)(C)C(=O)CC[C@]4(C)C3=CC[C@]12C)C(C)C [POLYPORENIC ACID B]
OUT: 4.9

IN: Please report the measured IC50 for CC1=C(C)[C@@]2(C[C@](C)(O)[C@H]3C[C@H](O)[C@@]4(C)C5=CC[C@H]6C(C)(C)[C@@H](O)C(=O)C[C@]6(C)C5=C[C@@H](O2)[C@]34C)OC1=O
OUT: 4.5
